Data origin: paper PMC12735688

- assayed target: rabbit muscle glycogen phosphorylase a (RMGPa) (Oryctolagus cuniculus, UniProt P00489)
- Construct: purchased
- Sequence (P00489 2-843 limits assumed): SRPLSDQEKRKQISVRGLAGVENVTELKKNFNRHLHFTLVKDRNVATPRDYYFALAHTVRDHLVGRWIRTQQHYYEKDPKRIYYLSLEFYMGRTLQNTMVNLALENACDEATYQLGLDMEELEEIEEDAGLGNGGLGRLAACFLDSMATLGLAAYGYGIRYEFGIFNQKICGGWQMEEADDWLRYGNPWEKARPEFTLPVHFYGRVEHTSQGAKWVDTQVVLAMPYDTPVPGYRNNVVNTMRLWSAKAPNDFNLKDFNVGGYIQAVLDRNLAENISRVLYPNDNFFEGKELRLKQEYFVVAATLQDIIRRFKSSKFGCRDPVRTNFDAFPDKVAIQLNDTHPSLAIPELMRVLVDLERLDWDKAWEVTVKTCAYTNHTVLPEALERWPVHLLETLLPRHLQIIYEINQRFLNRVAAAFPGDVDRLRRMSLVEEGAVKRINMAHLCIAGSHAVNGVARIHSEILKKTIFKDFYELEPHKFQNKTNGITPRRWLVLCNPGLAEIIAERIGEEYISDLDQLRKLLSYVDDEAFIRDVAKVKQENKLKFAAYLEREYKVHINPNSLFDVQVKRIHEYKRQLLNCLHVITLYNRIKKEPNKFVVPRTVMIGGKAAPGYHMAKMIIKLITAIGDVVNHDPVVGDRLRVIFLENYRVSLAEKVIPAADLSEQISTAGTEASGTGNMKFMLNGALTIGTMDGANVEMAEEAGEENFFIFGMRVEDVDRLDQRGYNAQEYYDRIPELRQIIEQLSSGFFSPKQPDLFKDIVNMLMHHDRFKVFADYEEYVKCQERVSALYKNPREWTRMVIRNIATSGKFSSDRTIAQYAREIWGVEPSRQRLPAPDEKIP
- experimental details: RMGPa enzyme inhibition assay (phosphate release, malachite green)
- Format: biochemical
- setup conditions: mean ± S.D. of three determinations; NI means no inhibition
We begin with a simple list: items and their reported IC50.
Hi! Could you send only the number? It should be in nM, unit omitted.

Cc1ccc2[nH]c(C(=O)Nc3ccc4c(c3)NC(=O)c3ccc(C(F)(F)F)cc3O4)cc2c1: 338
O=C(Nc1ccc2c(c1)NC(=O)c1ccc(C(F)(F)F)cc1O2)c1cc2cc(O)ccc2[nH]1: 723
COc1cnc2[nH]c(C(=O)Nc3ccc4c(c3)NC(=O)c3ccc(C(F)(F)F)cc3O4)cc2c1: 1790
CCCc1cc(OC)c2c(c1)C(=O)Nc1cc(NC(=O)c3cc4cc(Cl)ccc4[nH]3)ccc1O2: 2180

Now consider a different compound.
[ask] Find the recorded IC50 belonging to COc1ccc2[nH]c(C(=O)Nc3ccc4c(c3)NC(=O)c3ccc(C(F)(F)F)cc3O4)cc2c1 and report it.
[reply] 840
